Biological target: MMP-13 (Homo sapiens)
Construct: made in house; host or cells: baculovirus / insect cells
Experiment: biochemical
Settings: read-out: MMP-13 IC50
Counter-ions that a name gives are not always drawn.
Entries and their IC50

{"columns": ["compound", "system", "IC50"],
 "data": [
  ["COCCN1CCC(C(=O)NO)(S(=O)(=O)c2ccc(N3CCC(C(=O)N4CC(C)CC(C)C4)CC3)cc2)CC1 (stereo not shown) [Example 233, Monohydrochloride]", "MMP-13 (Homo sapiens)", "43.5 nM"],
  ["COc1ccc(Oc2ccc(S(=O)(=O)C3(C(=O)NO)CCS(=O)(=O)CC3)cc2)cc1 [Example 156]", "MMP-13 (Homo sapiens)", "2.2 nM"],
  ["C[C@H]1C[C@H](C)CN(C(=O)C2CCN(c3ccc(S(=O)(=O)C4(C(=O)NO)CCNCC4)cc3)CC2)C1 (relative stereo) [Example 238, Monohydrochloride]", "MMP-13 (Homo sapiens)", "80 nM"],
  ["O=C(C1CCN(c2ccc(S(=O)(=O)C3(C(=O)NO)CCOCC3)cc2)CC1)N1CCN(CCN2CCOCC2)CC1 [Example 42]", "MMP-13 (Homo sapiens)", "82.5 nM"],
  ["O=C(C1CCN(c2ccc(S(=O)(=O)C3(C(=O)NO)CCOCC3)cc2)CC1)N1CCN(c2ccc(C(F)(F)F)cc2)CC1 [Example 38]", "MMP-13 (Homo sapiens)", "67.4 nM"],
  ["COc1ccccc1C1CCN(c2ccc(S(=O)(=O)C3(C(=O)NO)CCSCC3)cc2)CC1 [Example 153]", "MMP-13 (Homo sapiens)", "50 nM"],
  ["COc1ccccc1C1CCN(c2ccc(S(=O)(=O)C3(C(=O)NO)CCOCC3)cc2)CC1 [Example 79]", "MMP-13 (Homo sapiens)", "20 nM"],
  ["CC1CC(C)CN(C(=O)C2CCN(c3ccc(S(=O)(=O)C4(C(=O)NO)CCSCC4)cc3)CC2)C1 (stereo not shown) [Example 162]", "MMP-13 (Homo sapiens)", "27.8 nM"],
  ["O=C(C1CCN(c2ccc(S(=O)(=O)C3(C(=O)NO)CCOCC3)cc2)CC1)N1CCN(c2cccc(Cl)c2)CC1 [Example 43]", "MMP-13 (Homo sapiens)", "17.9 nM"],
  ["CCOc1ccccc1N1CCN(C(=O)C2CCN(c3ccc(S(=O)(=O)C4(C(=O)NO)CCOCC4)cc3)CC2)CC1 [Example 24]", "MMP-13 (Homo sapiens)", "23.5 nM"],
  ["O=C(c1ccc(F)cc1)C1CCN(c2ccc(S(=O)(=O)C3(C(=O)NO)CCSCC3)cc2)CC1 [Example 152]", "MMP-13 (Homo sapiens)", "2 nM"],
  ["COc1ccc(Oc2ccc(S(=O)(=O)C3(C(=O)NO)CCSCC3)cc2)cc1 [Example 146]", "MMP-13 (Homo sapiens)", "0.2 nM"],
  ["O=C(C1CCN(c2ccc(S(=O)(=O)C3(C(=O)NO)CCOCC3)cc2)CC1)N1CCC(CO)CC1 [Example 44]", "MMP-13 (Homo sapiens)", "19 nM"]
]}

* * *

Entries and their IC50
Target: MMP-2 (Homo sapiens, UniProt P08253)
Construct: made in house; provided by Dr. Gregory Goldberg, Washington University
Sequence (P08253 110-660): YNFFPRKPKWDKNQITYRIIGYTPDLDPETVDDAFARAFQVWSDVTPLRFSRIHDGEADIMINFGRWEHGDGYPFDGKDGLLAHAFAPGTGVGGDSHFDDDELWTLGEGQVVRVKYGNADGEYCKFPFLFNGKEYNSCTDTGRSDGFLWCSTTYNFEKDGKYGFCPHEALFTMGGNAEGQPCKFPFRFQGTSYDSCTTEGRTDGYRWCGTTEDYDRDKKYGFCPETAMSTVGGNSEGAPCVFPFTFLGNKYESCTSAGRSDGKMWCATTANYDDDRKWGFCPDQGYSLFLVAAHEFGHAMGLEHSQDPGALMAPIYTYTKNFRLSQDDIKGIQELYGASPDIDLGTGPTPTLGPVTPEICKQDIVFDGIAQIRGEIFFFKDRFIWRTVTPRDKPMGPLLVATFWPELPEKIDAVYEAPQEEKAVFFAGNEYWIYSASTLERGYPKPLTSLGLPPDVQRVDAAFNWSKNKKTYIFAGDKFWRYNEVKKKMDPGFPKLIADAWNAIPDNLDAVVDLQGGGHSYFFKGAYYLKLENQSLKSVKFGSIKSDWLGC
Experiment: biochemical
Settings: recombinant human MMP-2, MCA peptide substrate 4 μM, pH 7.5, room temperature; read-out: MMP-2 IC50

{"columns": ["molecule", "IC50"],
 "data": [
  ["CC1CC(C)CN(C(=O)C2CCN(c3ccc(S(=O)(=O)C4(C(=O)NO)CCN(C(=O)CNCC5CC5)CC4)cc3)CC2)C1 (stereo not drawn) [Example 293]", "> 10 µM"],
  ["O=C(NO)C1(S(=O)(=O)c2ccc(N3CC4CC3CN4c3cccc(F)c3)cc2)CCOCC1 (stereo not drawn) [Example 491]", "> 10 µM"],
  ["CC1CC(C)CN(C(=O)C2CCN(c3ccc(S(=O)(=O)C4(C(=O)NO)CCN(C(=O)CN5CCN(CCN6CCOCC6)CC5)CC4)cc3)CC2)C1 (stereo not drawn) [Example 306]", "> 10 µM"]
]}
